Target: PKCα (Homo sapiens)
Assay: PKCα kinase Caliper assay
Assay type: biochemical
Settings: PKCα Caliper assay; read-out: PKC IC50
Below: a set of entries, each annotated with reported log10 of IC50.
In our notation, the value equals log10 of IC50 in µM.

>  <CHEMICAL_STRUCTURE>
CC1(C)C[C@H](N)C[C@@H](c2ccncc2NC(=O)c2nc(-c3ccccc3)cnc2N)O1

>  <OBSERVED_MEASUREMENT>
-2.00

$$$$
>  <CHEMICAL_STRUCTURE>
C[C@@]1(O)[C@H](N)C[C@@H](c2ccncc2NC(=O)c2nc(-c3ccccc3)cnc2N)OC12CC2

>  <OBSERVED_MEASUREMENT>
-1.26

$$$$
>  <CHEMICAL_STRUCTURE>
N[C@H]1C[C@@H](c2ccncc2NC(=O)c2csc(-c3c(F)cccc3F)n2)O[C@H]2CCC[C@H]21

>  <OBSERVED_MEASUREMENT>
0.04

$$$$
>  <CHEMICAL_STRUCTURE>
CCC[C@H]1O[C@@H](c2ccncc2NC(=O)c2nc(-c3ccccc3)cnc2N)C[C@@H](O)[C@@H]1O

>  <OBSERVED_MEASUREMENT>
-0.07

$$$$

Please turn your attention to the following entry.
Prompt: Name the reported log10 of IC50 value associated with the compound Nc1ncc(-c2ccccc2)nc1C(=O)Nc1cnccc1[C@H]1C[C@@H](N)[C@H](O)[C@@H](C2CC2)O1
Completion: -1.22

---

Target: PIM3 (Homo sapiens)
Test: KinaseGlo Pim3 ATP depletion assay
Type: biochemical
pIC50: −log10 of the molar value.
Assign yes to entries whose pIC50 meets or exceeds 7; assign no to the rest.

As a guide, the following entries are already answered.
>  <CHEMICAL_STRUCTURE>
CC[C@H]1O[C@@H](c2ccncc2NC(=O)c2nc(-c3ccccc3F)c(F)cc2N)C[C@@H](O)[C@@H]1O

>  <CATEGORY>
yes

$$$$
>  <CHEMICAL_STRUCTURE>
CC(C)NC(=O)c1ccc(F)c(-c2cccc(C(=O)Nc3cnccc3[C@H]3C[C@@H](O)[C@](C)(O)[C@@H](C)O3)n2)c1

>  <CATEGORY>
yes

$$$$
>  <CHEMICAL_STRUCTURE>
C[C@@H]1O[C@H](c2ccncc2NC(=O)c2csc(-c3c(F)cccc3F)n2)C[C@H](N)[C@H]1O

>  <CATEGORY>
yes

$$$$
>  <CHEMICAL_STRUCTURE>
CC[C@H]1O[C@@H](c2ncncc2NC(=O)c2ccc(F)c(-c3c(F)cccc3F)n2)C[C@@H](O)[C@@H]1O

>  <CATEGORY>
no

$$$$
>  <CHEMICAL_STRUCTURE>
C=C1[C@@H](O)C[C@@H](c2ccncc2NC(=O)c2nc(-c3c(F)cccc3F)ncc2N)OC12CC2

>  <CATEGORY>
yes

$$$$

Prompt: Check if pIC50 >= 7 (inclusive). Item: O=C(Nc1cnccc1[C@@H]1C[C@H](O)[C@]2(O)CCC[C@@H]2O1)c1cccn(-c2ccccc2)c1=O
Completion: no

---

Target: GSK3β (Homo sapiens, UniProt P49841)
Sequence (P49841 whole entry, species assumed): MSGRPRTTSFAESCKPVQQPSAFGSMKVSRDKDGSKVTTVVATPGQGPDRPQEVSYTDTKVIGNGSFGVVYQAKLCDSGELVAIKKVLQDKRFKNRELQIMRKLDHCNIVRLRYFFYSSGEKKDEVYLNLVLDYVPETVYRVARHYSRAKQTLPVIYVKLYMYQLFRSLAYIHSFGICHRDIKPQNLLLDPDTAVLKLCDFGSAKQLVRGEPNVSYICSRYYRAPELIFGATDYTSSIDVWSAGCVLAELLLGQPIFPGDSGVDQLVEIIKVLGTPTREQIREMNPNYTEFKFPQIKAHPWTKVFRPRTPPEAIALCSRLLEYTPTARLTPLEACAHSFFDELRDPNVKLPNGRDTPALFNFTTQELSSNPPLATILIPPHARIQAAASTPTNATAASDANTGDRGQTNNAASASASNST
Experiment: GSK3β ATP depletion assay
Format: biochemical
Conditions: read-out: GSK3b IC50
MEASURED_METRIC: pIC50
// returns pIC50 (minus log10 of molar concentration), number only

>  <MOLECULE>
O=C(Nc1cnccc1[C@H]1C[C@@H](O)CC2(CC2)O1)c1ccc(F)c(-c2c(F)cccc2F)n1 [Example 59]

>  <OBSERVED_MEASUREMENT>
6.12

$$$$
>  <MOLECULE>
Nc1ncc(-c2ccccc2)nc1C(=O)Nc1cnccc1[C@H]1C[C@@H](O)[C@@]2(O)CCC[C@H]2O1 [Example 195]

>  <OBSERVED_MEASUREMENT>
9.00

$$$$
>  <MOLECULE>
C[C@@H]1O[C@H](c2ccncc2NC(=O)c2ccc(F)c(-c3c(F)cccc3F)n2)C[C@H](O)[C@H]1O [Example 120]

>  <OBSERVED_MEASUREMENT>
6.10

$$$$
>  <MOLECULE>
CC[C@]1(O)[C@H](O)C[C@H](c2ccncc2NC(=O)c2nc(-c3ncccc3F)ccc2N)O[C@@H]1C [Example 155]

>  <OBSERVED_MEASUREMENT>
6.43

$$$$
>  <MOLECULE>
CC[C@]1(O)[C@H](O)C[C@H](c2ccncc2NC(=O)c2nc(-c3c(F)cccc3F)c(F)cc2N)O[C@@H]1C [Example 27]

>  <OBSERVED_MEASUREMENT>
6.60

$$$$
>  <MOLECULE>
C[C@@H]1C[C@H](O)C[C@H](c2ccncc2NC(=O)c2csc(-c3c(F)cccc3F)n2)O1 (stereo in doubt) [Example 125]

>  <OBSERVED_MEASUREMENT>
6.98

$$$$
>  <MOLECULE>
CC[C@]1(O)[C@H](O)C[C@H](c2ccncc2NC(=O)c2c[nH]cc(-c3ccccc3)c2=O)O[C@@H]1C [Example 179]

>  <OBSERVED_MEASUREMENT>
5.57

$$$$
>  <MOLECULE>
CC[C@H]1O[C@@H](c2ccncc2NC(=O)c2nc(-c3c(F)cccc3F)c(F)cc2N)C[C@@H](O)[C@@H]1O [Example 43]

>  <OBSERVED_MEASUREMENT>
6.73

$$$$
>  <MOLECULE>
C[C@H]1O[C@@H](c2ccncc2NC(=O)c2ccc(F)c(-c3c(F)cccc3F)n2)C[C@@H](O)[C@]1(C)O (stereo in doubt) [Example 110]

>  <OBSERVED_MEASUREMENT>
6.18

$$$$
>  <MOLECULE>
O=C1CC[C@H]2O[C@@H](c3ccncc3NC(=O)c3ccc(F)c(-c4c(F)cccc4F)n3)C[C@@H](O)[C@@H]2N1 [Example 196]

>  <OBSERVED_MEASUREMENT>
6.19

$$$$

Prompt: Name the reported pIC50 value associated with the molecule O=C(Nc1cnccc1[C@@]1(C(F)(F)F)CCCCO1)c1ccc(F)c(-c2c(F)cccc2F)n1 [Example 51]
Completion: 5.43

Prompt: // repeat for N#C[C@H]1O[C@@H](c2ccncc2NC(=O)c2nc(-c3c(F)cccc3F)ncc2N)C[C@@H](O)[C@@H]1O [Example 148] and report
Completion: 6.16

Prompt: // repeat for O=C(Nc1cnccc1[C@]1(C(F)(F)F)CCCCO1)c1ccc(F)c(-c2c(F)cccc2F)n1 [Example 52] and report
Completion: 6.16

Prompt: // repeat for C[C@H]1O[C@@H](c2ccncc2NC(=O)c2csc(-c3c(F)cccc3F)n2)C[C@@H](O)[C@]1(C)O (stereo in doubt) [Example 109] and report
Completion: 6.57

---

Target: GSK3β (Homo sapiens)
Test: GSK3β ATP depletion assay
Assay type: biochemical
Conditions: read-out: GSK3b IC50
Below: a set of entries, each annotated with reported pIC50.
// returns pIC50 (minus log10 of molar concentration), number only

>  <COMPOUND>
C=C[C@H]1OC(c2ccncc2NC(=O)c2nc(-c3ccccc3F)c(F)cc2N)=C[C@@H](O)[C@@H]1O

>  <pIC50>
6.75

$$$$

Prompt: Name the reported pIC50 value associated with the compound O=C(Nc1cnccc1[C@@H]1C[C@H](O)[C@]2(O)CCC[C@@H]2O1)c1ccnn(-c2ccccc2F)c1=O
Completion: 6.27

Prompt: // repeat for CC[C@H]1O[C@@H](c2ccncc2NC(=O)c2ccc(F)c(-c3c(F)ccc(C#N)c3F)n2)C[C@@H](O)[C@@H]1O and report
Completion: 7.29

Prompt: // repeat for CC[C@H]1O[C@@H](c2ccncc2NC(=O)c2ccc(F)c(-c3c(F)cccc3F)n2)C[C@@H](O)[C@@H]1O and report
Completion: 6.64

Prompt: // repeat for CC[C@@]1(O)[C@H](C)O[C@H](c2ccncc2NC(=O)c2ccc(F)c(-c3c(F)cccc3F)n2)C[C@@H]1O and report
Completion: 5.49

Prompt: // repeat for CC[C@H]1O[C@@H](c2ccncc2NC(=O)c2nc(-c3ccccc3F)c(F)cc2N)C[C@@H](O)[C@@H]1O and report
Completion: 7.64

Prompt: // repeat for C[C@H]1O[C@@H](c2ccncc2NC(=O)c2csc(-c3c(F)cccc3F)n2)[C@H](F)[C@@H](O)[C@]1(C)O (stereo in doubt) and report
Completion: 5.97

Prompt: // repeat for CC[C@@]1(O)[C@H](O)C[C@H](c2ccncc2NC(=O)c2ccc(F)c(-c3c(F)cccc3F)n2)O[C@@H]1C and report
Completion: 6.50

---

Target: PIM3 (Homo sapiens, UniProt Q86V86)
Assay: Pim 3 AlphaScreen assay (high ATP)
Format: biochemical
Details: read-out: Pim3 IC50
MEASURED_METRIC: IC50 (nM)
Respond numerically; units are nM and should not be typed.

# count of solved cases: 3
>  <CHEMICAL_STRUCTURE>
Cc1cc(F)c(-c2nc(C(=O)Nc3cnccc3[C@@H]3C[C@@H](N)CC(C)(C)O3)ccc2F)c(F)c1

>  <OBSERVED_MEASUREMENT>
1.4

$$$$
>  <CHEMICAL_STRUCTURE>
CC[C@@H]1O[C@H](c2ccncc2NC(=O)c2ccc(F)c(-c3c(F)cccc3F)n2)C[C@H](N)[C@H]1O

>  <OBSERVED_MEASUREMENT>
157

$$$$
>  <CHEMICAL_STRUCTURE>
C[C@]1(O)[C@H](N)C[C@H](c2ccncc2NC(=O)c2csc(-c3c(F)cccc3F)n2)O[C@@H]1C1CC1

>  <OBSERVED_MEASUREMENT>
23.1

$$$$

Prompt: Missing value: IC50, PIM3 (Homo sapiens, UniProt Q86V86), entry COc1cc(F)c(-c2nc(C(=O)Nc3cnccc3[C@H]3C[C@@H](N)[C@H](O)[C@@H](C(C)(C)C)O3)ccc2F)c(F)c1 . Fill in?
Completion: 0.5

Prompt: // repeat for N[C@@H]1C[C@H](c2ccncc2NC(=O)c2ccc(F)c(-c3c(F)cccc3F)n2)O[C@H](C2CC2)[C@H]1O and report
Completion: 7.6

Prompt: // repeat for COc1cc(F)c(-c2nc(C(=O)Nc3cnccc3[C@@H]3C[C@H](N)[C@@H](O)[C@H](C4CC4)O3)ccc2F)c(F)c1 and report
Completion: 181

Prompt: // repeat for CC(C)(C)[C@H]1O[C@@H](c2ccncc2NC(=O)c2nc(-c3c(F)cccc3F)ncc2N)C[C@@H](N)[C@@H]1O and report
Completion: 3.6
